# Target Desc: T1, human leukocyte elastase (hLE) (human), P08246
# T1 chain: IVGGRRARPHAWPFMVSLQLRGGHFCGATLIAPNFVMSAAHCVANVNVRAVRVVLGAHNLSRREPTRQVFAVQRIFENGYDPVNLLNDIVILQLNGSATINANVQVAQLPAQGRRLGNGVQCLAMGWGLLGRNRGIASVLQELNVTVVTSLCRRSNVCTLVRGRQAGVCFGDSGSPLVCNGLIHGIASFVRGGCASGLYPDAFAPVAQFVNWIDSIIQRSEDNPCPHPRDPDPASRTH
# Measurement Context: modification not given
Parameter: Ki (nM)
Number only, in nM; omit the unit.

-- ask Identify Ki associated with the binder EILIFWSADI [peptide 25]
-- reply 3000
